pKi listing for selected molecules.
Molecular target: D(2) dopamine receptor (Bos taurus, UniProt P20288)
Sequence (P20288 whole entry): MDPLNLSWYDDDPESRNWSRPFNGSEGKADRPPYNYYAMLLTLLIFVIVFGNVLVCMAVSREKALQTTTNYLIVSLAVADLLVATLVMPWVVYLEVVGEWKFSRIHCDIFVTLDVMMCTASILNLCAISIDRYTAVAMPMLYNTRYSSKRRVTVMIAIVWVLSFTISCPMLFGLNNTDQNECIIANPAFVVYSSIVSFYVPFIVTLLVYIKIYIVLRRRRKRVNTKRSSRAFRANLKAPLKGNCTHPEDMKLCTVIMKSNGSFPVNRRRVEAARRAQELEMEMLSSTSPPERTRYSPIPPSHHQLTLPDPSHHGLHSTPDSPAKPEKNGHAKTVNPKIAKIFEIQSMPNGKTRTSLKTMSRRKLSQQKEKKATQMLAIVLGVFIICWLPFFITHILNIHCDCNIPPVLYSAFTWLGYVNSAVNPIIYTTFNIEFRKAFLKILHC
Test: Inhibitory constant of compound in presence of Gpp(NH)p (Pre treated with 100 nM) calculated for the high affinity components of the [3H]spiroperidol binding to Dopamine receptor D2
Worth noting: pKi values are minus log10 of concentrations stated in mol/L.

Could you tell me which pKi is on file for NC(=O)[C@H]1CS[C@@H]2CC(N3CC(=O)N4CCC[C@H]4C3=O)C(=O)N12 (some centres not stated) ?
10.17

Turning now to a further molecule:
Could you tell me which pKi is on file for CC(C)C[C@@H](C(=O)NCC(N)=O)N1CC(=O)N2CCC[C@H]2C1=O ?
10.10

* * *

Biological target: D(2) dopamine receptor (Bos taurus)
Test: Inhibitory constant of compound in absence of Gpp(NH)p calculated for the low affinity components of the [3H]spiroperidol binding to Dopamine receptor D2
Where a SMILES comes first, the peptide text is derived from it.
endpoint: Ki
Provide a numeric answer, followed by its unit.

Could you tell me which Ki is on file for CC(C)C[C@H](NC(=O)[C@@H]1CCCN1)C(=O)NCC(N)=O [L-pro-L-leu-gly-NH2] (H-Pro-Leu-Gly-NH2) ?
73 nM

Could you tell me which Ki is on file for CC(C)C[C@@H](C(=O)NCC(N)=O)N1CC(=O)N2CCC[C@H]2C1=O ?
120 nM

Could you tell me which Ki is on file for NC(=O)[C@H]1CS[C@@H]2CC(N3CC(=O)N4CCC[C@H]4C3=O)C(=O)N12 (some centres undefined) ?
171 nM

Could you tell me which Ki is on file for NC(=O)CN1CCC(N2CC(=O)N3CCC[C@H]3C2=O)C1=O (some centres undefined) ?
69 nM

* * *

Target: D(2) dopamine receptor (Bos taurus, UniProt P20288)
Assay: Inhibitory constant of compound in absence of Gpp(NH)p (Pre treated with 1 uM) calculated for the high affinity components of the [3H]spiroperidol binding to Dopamine receptor D2
Where a SMILES comes first, the peptide text is derived from it.
endpoint: Ki (nM)
Record the value in nM, omitting the unit from your answer.

Could you tell me which Ki is on file for CC(C)C[C@H](NC(=O)[C@@H]1CCCN1)C(=O)NCC(N)=O [L-pro-L-leu-gly-NH2] (H-Pro-Leu-Gly-NH2) ?
0.04

* * *

Target: UniProtKB P20288
Assay: Inhibitory constant of compound in absence of Gpp(NH)p (Pre treated with 100 nM) calculated for the high affinity components of the [3H]spiroperidol binding to Dopamine receptor D2
endpoint: Ki (nM)
Record the value in nM, omitting the unit from your answer.

Could you tell me which Ki is on file for NC(=O)[C@H]1CS[C@@H]2CC(N3CC(=O)N4CCC[C@H]4C3=O)C(=O)N12 (stereo partly specified) ?
0.066

* * *

pKi listing for selected compounds.
Molecular target: D(2) dopamine receptor (Bos taurus, UniProt P20288)
Assay: Inhibitory constant of compound in absence of Gpp(NH)p calculated for the high affinity components of the [3H]spiroperidol binding to Dopamine receptor D2
Where a SMILES comes first, the peptide text is derived from it.
Worth noting: pKi values are minus log10 of concentrations stated in mol/L.

Could you tell me which pKi is on file for CC(C)C[C@@H](C(=O)NCC(N)=O)N1CC(=O)N2CCC[C@H]2C1=O ?
10.10

Could you tell me which pKi is on file for NC(=O)CN1CCC(N2CC(=O)N3CCC[C@H]3C2=O)C1=O (some centres undefined) ?
10.10

Could you tell me which pKi is on file for NC(=O)[C@H]1CS[C@@H]2CC(N3CC(=O)N4CCC[C@H]4C3=O)C(=O)N12 (some centres undefined) ?
10.01

Turning now to a further compound:
Could you tell me which pKi is on file for CC(C)C[C@H](NC(=O)[C@@H]1CCCN1)C(=O)NCC(N)=O [L-pro-L-leu-gly-NH2] (H-Pro-Leu-Gly-NH2) ?
10.05

* * *

Target: D(2) dopamine receptor (Bos taurus, UniProt P20288)
Test: Inhibitory constant of compound in absence of Gpp(NH)p (Pretreated with 100 nM) calculated for the high affinity components of the [3H]spiroperidol binding to Dopamine receptor D2
endpoint: Ki (nM)
Record the value in nM, omitting the unit from your answer.

Could you tell me which Ki is on file for CC(C)C[C@@H](C(=O)NCC(N)=O)N1CC(=O)N2CCC[C@H]2C1=O ?
0.068

* * *

Target: D(2) dopamine receptor (Bos taurus)
Assay: Inhibitory constant of compound in presence of Gpp(NH)p calculated for the high affinity components of the [3H]spiroperidol binding to Dopamine receptor D2
Where a SMILES comes first, the peptide text is derived from it.
Ki listing for selected compounds.

# value lookup — system D(2) dopamine receptor (Bos taurus), readout Ki, item CC(C)C[C@@H](C(=O)NCC(N)=O)N1CC(=O)N2CCC[C@H]2C1=O
0.12 nM

Continuing:
# value lookup — system D(2) dopamine receptor (Bos taurus), readout Ki, item NC(=O)[C@H]1CS[C@@H]2CC(N3CC(=O)N4CCC[C@H]4C3=O)C(=O)N12 (some centres undefined)
0.14 nM

# value lookup — system D(2) dopamine receptor (Bos taurus), readout Ki, item NC(=O)CN1CCC(N2CC(=O)N3CCC[C@H]3C2=O)C1=O (some centres undefined)
0.19 nM

# value lookup — system D(2) dopamine receptor (Bos taurus), readout Ki, item CC(C)C[C@H](NC(=O)[C@@H]1CCCN1)C(=O)NCC(N)=O [L-pro-L-leu-gly-NH2] (H-Pro-Leu-Gly-NH2)
0.13 nM

* * *

Target: D(2) dopamine receptor (Bos taurus, UniProt P20288)
Test: Inhibitory constant of compound in absence of Gpp(NH)p (Pre treated with 1 nM) calculated for the high affinity components of the [3H]spiroperidol binding to Dopamine receptor D2
endpoint: pKi
Worth noting: pKi values are minus log10 of concentrations stated in mol/L.

Could you tell me which pKi is on file for NC(=O)CN1CCC(N2CC(=O)N3CCC[C@H]3C2=O)C1=O (stereo partly specified) ?
10.70
